Protocol notes: Protein binding in mouse plasma
Assay type: ADME, cell-free
Protocol conditions: read-out: PPB
Experimental endpoint: fraction unbound

>>> df
                            compound_smiles  value_reported
0  O=C(CCNC(=O)c1ccc(OC(F)(F)F)cc1)N[C@@H]1CCCc2ccccc21            0.01

====

System: Dihydroorotate dehydrogenase (quinone), mitochondrial (Homo sapiens)
Sequence (Q02127 whole entry): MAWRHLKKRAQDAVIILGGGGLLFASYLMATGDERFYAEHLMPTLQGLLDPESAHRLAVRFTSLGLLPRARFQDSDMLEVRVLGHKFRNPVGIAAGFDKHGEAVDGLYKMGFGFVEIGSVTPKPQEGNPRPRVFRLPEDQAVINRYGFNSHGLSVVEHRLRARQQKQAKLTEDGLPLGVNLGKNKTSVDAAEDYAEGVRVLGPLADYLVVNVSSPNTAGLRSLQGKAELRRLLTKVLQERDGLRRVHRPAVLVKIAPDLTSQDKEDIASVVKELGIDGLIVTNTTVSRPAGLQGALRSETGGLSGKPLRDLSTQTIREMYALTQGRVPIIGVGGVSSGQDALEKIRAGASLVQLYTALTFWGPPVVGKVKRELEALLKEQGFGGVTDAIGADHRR
Protocol notes: Inhibition of human recombinant DHODH
pIC50: −log10 of the molar value.
Experimental endpoint: pIC50

>>> df
                            compound_smiles  experimental_endpoint  value_reported
0  O=C(CNC(=O)c1ccc(Cl)c(Cl)c1)N[C@@H]1CCCc2ccccc21                  pIC50          < 4.70
1  O=C(CNC(=O)c1ccc(OC(F)(F)F)cc1)N[C@@H]1CCCc2ccccc21                  pIC50          < 4.70
2  O=C(CCCNC(=O)c1ccc(Cl)cc1)N[C@@H]1CCCc2ccccc21                  pIC50          < 4.70
